biological target: Antithrombin III (plasma purified human AT-III, Molecular Innovations), as AT-III/UFH complex
Recorded measurements of K0.5-mut/K0.5-wt (against Catalyst Biosciences WT FIXa), one per entry
measuredEndpoint: K0.5-mut/K0.5-wt (against Catalyst Biosciences WT FIXa)

[[record]]
protein = "FIXa-K247N/N249S/N260S (protein) chain 1: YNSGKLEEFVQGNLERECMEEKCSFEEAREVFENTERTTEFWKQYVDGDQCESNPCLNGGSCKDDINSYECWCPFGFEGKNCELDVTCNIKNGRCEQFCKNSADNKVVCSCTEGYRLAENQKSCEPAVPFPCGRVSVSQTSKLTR chain 2: VVGGEDAKPGQFPWQVVLNGKVDAFCGGSIVNEKWIVTAAHCVETGVKITVVAGEHNIEETEHTEQNRSVIRIIPHHNYSAAINKYNHDIALLELDEPLVLNSYVTPICIADKEYTNIFLKFGSGYVSGWGRVFHKGRSALVLQYLRVPLVDRATCLRSTKFTIYNNMFCAGFHEGGRDSCQGDSGGPHVTEVEGTSFLTGIISWGEECAMKGKYGIYTKVSRYVNWIKEKTKLT"
inequalitysymbol = "="
experimentalvalue = 8.1

[[record]]
protein = "FIXa-R318Y/R338E/N346Y/R403E/E410N (protein) chain 1: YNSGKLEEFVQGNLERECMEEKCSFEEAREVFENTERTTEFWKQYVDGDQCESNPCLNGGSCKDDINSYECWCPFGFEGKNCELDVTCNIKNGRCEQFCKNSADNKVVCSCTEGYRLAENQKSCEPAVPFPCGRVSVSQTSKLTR chain 2: VVGGEDAKPGQFPWQVVLNGKVDAFCGGSIVNEKWIVTAAHCVETGVKITVVAGEHNIEETEHTEQKRNVIRIIPHHNYNAAINKYNHDIALLELDEPLVLNSYVTPICIADKEYTNIFLKFGSGYVSGWGRVFHKGYSALVLQYLRVPLVDRATCLESTKFTIYYNMFCAGFHEGGRDSCQGDSGGPHVTEVEGTSFLTGIISWGEECAMKGKYGIYTKVSEYVNWIKNKTKLT"
inequalitysymbol = ">"
experimentalvalue = 517

[[record]]
protein = "FIXa-R318Y/R338E/Y345A/N346D/R403E/E410N (protein) chain 1: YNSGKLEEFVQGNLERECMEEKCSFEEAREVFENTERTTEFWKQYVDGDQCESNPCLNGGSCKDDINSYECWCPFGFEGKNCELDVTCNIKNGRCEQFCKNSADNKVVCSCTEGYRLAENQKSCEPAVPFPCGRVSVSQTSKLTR chain 2: VVGGEDAKPGQFPWQVVLNGKVDAFCGGSIVNEKWIVTAAHCVETGVKITVVAGEHNIEETEHTEQKRNVIRIIPHHNYNAAINKYNHDIALLELDEPLVLNSYVTPICIADKEYTNIFLKFGSGYVSGWGRVFHKGYSALVLQYLRVPLVDRATCLESTKFTIADNMFCAGFHEGGRDSCQGDSGGPHVTEVEGTSFLTGIISWGEECAMKGKYGIYTKVSEYVNWIKNKTKLT"
inequalitysymbol = ">"
experimentalvalue = 517

[[record]]
protein = "FIXa-R318Y/R338E/T343R/R403E/E410N (protein) chain 1: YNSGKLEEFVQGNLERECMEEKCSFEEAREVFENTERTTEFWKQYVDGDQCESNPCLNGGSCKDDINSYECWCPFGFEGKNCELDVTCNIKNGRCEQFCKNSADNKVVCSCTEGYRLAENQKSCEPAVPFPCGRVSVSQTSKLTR chain 2: VVGGEDAKPGQFPWQVVLNGKVDAFCGGSIVNEKWIVTAAHCVETGVKITVVAGEHNIEETEHTEQKRNVIRIIPHHNYNAAINKYNHDIALLELDEPLVLNSYVTPICIADKEYTNIFLKFGSGYVSGWGRVFHKGYSALVLQYLRVPLVDRATCLESTKFRIYNNMFCAGFHEGGRDSCQGDSGGPHVTEVEGTSFLTGIISWGEECAMKGKYGIYTKVSEYVNWIKNKTKLT"
inequalitysymbol = ">"
experimentalvalue = 517

[[record]]
protein = "FIXa-D104N/K106S/Y155F/K247N/N249S/N260S (protein) chain 1: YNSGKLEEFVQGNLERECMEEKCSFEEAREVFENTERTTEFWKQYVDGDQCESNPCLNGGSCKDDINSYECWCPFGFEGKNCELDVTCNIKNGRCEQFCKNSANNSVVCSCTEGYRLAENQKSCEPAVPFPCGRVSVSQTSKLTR chain 2: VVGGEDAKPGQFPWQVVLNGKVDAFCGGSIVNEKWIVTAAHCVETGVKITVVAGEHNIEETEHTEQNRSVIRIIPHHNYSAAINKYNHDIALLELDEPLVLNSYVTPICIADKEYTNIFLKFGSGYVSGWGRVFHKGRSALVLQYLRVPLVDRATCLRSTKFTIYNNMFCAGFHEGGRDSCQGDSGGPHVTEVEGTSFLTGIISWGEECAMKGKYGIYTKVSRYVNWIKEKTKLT"
inequalitysymbol = "="
experimentalvalue = 35.8

[[record]]
protein = "FIXa-D104N/K106S/K247N/N249S/N260S (protein) chain 1: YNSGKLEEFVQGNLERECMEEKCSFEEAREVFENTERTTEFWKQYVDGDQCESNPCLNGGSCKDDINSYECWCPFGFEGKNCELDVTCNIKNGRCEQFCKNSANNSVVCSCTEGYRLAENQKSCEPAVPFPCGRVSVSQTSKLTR chain 2: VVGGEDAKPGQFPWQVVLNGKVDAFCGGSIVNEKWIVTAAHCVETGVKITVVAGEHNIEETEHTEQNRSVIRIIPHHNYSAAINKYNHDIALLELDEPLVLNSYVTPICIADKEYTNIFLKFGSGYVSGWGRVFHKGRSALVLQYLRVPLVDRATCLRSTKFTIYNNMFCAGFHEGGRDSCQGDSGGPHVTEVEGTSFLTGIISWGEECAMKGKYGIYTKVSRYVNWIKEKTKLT"
inequalitysymbol = "="
experimentalvalue = 65.3

[[record]]
protein = "FIXa-Y155F/R318Y/R338E/N346D/R403E/E410N (protein) chain 1: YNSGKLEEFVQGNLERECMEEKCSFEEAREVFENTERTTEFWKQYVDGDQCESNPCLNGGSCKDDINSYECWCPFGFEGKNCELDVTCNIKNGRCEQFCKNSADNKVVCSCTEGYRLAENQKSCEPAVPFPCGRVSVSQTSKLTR chain 2: VVGGEDAKPGQFPWQVVLNGKVDAFCGGSIVNEKWIVTAAHCVETGVKITVVAGEHNIEETEHTEQKRNVIRIIPHHNYNAAINKYNHDIALLELDEPLVLNSYVTPICIADKEYTNIFLKFGSGYVSGWGRVFHKGYSALVLQYLRVPLVDRATCLESTKFTIYDNMFCAGFHEGGRDSCQGDSGGPHVTEVEGTSFLTGIISWGEECAMKGKYGIYTKVSEYVNWIKNKTKLT"
inequalitysymbol = ">"
experimentalvalue = 517

